targetDesc: Cytochrome P450 3A4 (Homo sapiens)
assayInfo: Cytochrome panel assay with activity outcomes
testConditions: recombinant CYP, pro-luciferin dealkylation, luminescence, p450-cyp3a4; series mostly up to 57.1 µM
In all, about 16,000 compounds went through this assay and about 5,100 (32%) were called active. Roughly 25% stayed inconclusive and do not appear here. The call rests on the fitted dose curve; in most records, active means well fitted curve in the direction sought with a large enough effect; inconclusive means small, poorly fitted or top-dose-only effect, or effect the other way; inactive means no such curve, though single readings can be large or run the other way. The list shows a part of the results.
Outcomes: class 1 for active, class 0 for inactive

| smilesData | targetDesc | answerLabel |
| --- | --- | --- |
| CCOC(=O)c1sc(NC(=O)CSc2n[nH]c(-c3ccc(Cl)cc3Cl)n2)c(C#N)c1C | Cytochrome P450 3A4 (Homo sapiens) | class 1 |
| O=c1c(-c2nnc(SCc3ccc(Cl)c(Cl)c3)o2)cccn1Cc1ccccc1 | Cytochrome P450 3A4 (Homo sapiens) | class 1 |
| N#CC1=C(N)OC2=C(C(=O)CCC2)C12CCC1(CC2)OCCO1 | Cytochrome P450 3A4 (Homo sapiens) | class 0 |
| CCSc1nnc(NC(=O)Cc2ccccc2OC)s1 | Cytochrome P450 3A4 (Homo sapiens) | class 0 |
| O=c1c(-c2nnc(SCc3ccc(Cl)cc3Cl)o2)cccn1Cc1ccccc1 | Cytochrome P450 3A4 (Homo sapiens) | class 1 |

----------
targetDesc: Cytochrome P450 3A4 (Homo sapiens)
assayInfo: Cytochrome panel assay with activity outcomes; on activity, negative = inhibition: on the % scale 0 is the no-effect control and ±100 the full control effect
testConditions: recombinant CYP, pro-luciferin dealkylation, luminescence, p450-cyp3a4; series mostly up to 57.1 µM
The whole screen tested about 16,000 compounds, of which about 5,100 (32%) were called active. About 25% were inconclusive and are not listed. Some of the results follow.
We begin with a simple list: items and their reported activity, negative = inhibition.
measurementKind: activity, negative = inhibition

| compound | measurementKind | result |
| --- | --- | --- |
| OC[C@@H]1O[C@@H](N2CCN([C@@H]3O[C@@H](CO)[C@@H](O)[C@H](O)[C@H]3O)CC2)[C@@H](O)[C@H](O)[C@H]1O | activity, negative = inhibition | 2.3% [at 11.4 µM] (inactive) |
| O=S(=O)(O)c1cc(N=[N+]([O-])c2cc(S(=O)(=O)O)c3ccccc3c2)cc2ccccc12 | activity, negative = inhibition | -21.4% [at 11.4 µM] (inactive) |
| O=C1C2C3C=CC(C2C(=O)N1CN1CCOCC1)C1C2C(=O)N(CN4CCOCC4)C(=O)C2C31 (stereo not drawn) | activity, negative = inhibition | -1.18% [at 11.4 µM] (inactive) |
| O=C(O)[C@H]1CCCC[C@@H]1C(=O)Nc1nc2ccccc2[nH]1 | activity, negative = inhibition | -6.18% [at 11.4 µM] (inactive) |
| Cc1ccc(C)c(/C(=N\N=C(N)N)C2CC2)c1 | activity, negative = inhibition | -27% [at 11.4 µM] (inactive) |
| CC(=O)OC[C@@H]1O[C@@H](O/N=C2/C[C@@H](O)[C@@H](O)[C@@H]3[C@@H]4C(=O)N(C[C@@H]5CCCO5)C(=O)[C@H]4CC[C@H]23)[C@H](OC(C)=O)[C@H](OC(C)=O)[C@@H]1OC(C)=O | activity, negative = inhibition | -12.5% [at 11.4 µM] (inactive) |
| Cc1cc(NC(=O)C2CCCCC2)nc2c1c(=O)oc1ccccc12 | activity, negative = inhibition | -4.81% [at 2.29 µM] (inactive) |
| CC[C@@H](Nc1ncnc2nc[nH]c12)C(=O)O | activity, negative = inhibition | -5.2% [at 11.4 µM] (inactive) |

----------
targetDesc: Cytochrome P450 3A4 (Homo sapiens)
assayInfo: Cytochrome panel assay with activity outcomes
testConditions: recombinant CYP, pro-luciferin dealkylation, luminescence, p450-cyp3a4; series mostly up to 57.1 µM
Among all 16,000 compounds or so, about 5,100 (32%) were called active. Roughly 25% stayed inconclusive and do not appear here. Calls follow the shape of the dose curve; as a rule, active = well fitted curve in the direction sought with a large enough effect; inconclusive = small, poorly fitted or top-dose-only effect, or effect the other way; inactive = no such curve, though single readings can be large or run the other way. Some of the results follow.
Outcomes: active, inactive

| compound | answerLabel |
| --- | --- |
| O=C(Nc1ccc(Cl)cc1Cl)c1cccc(N2C(=O)C=CC2=O)c1 | active |
| FC(F)(F)c1ccccc1-c1nc(NC2CC2)c2ccccc2n1 | active |
| CCOc1ccc(CC(=O)Nc2sc(Cc3ccccc3)c(C)c2C(N)=O)cc1OCC | active |
| CC(=O)c1cc2ccccc2oc1=O | inactive |
| O=C(O)c1cc(=O)c2ccc(Cl)cc2[nH]1 | inactive |
| CC(=O)Nc1c(I)c(C(=O)N[C@H]2[C@@H](O)[C@H](O)[C@H](CO)O[C@@H]2O)c(I)c(N(C)C(C)=O)c1I | inactive |
| COCCN=C1Sc2nc3c(C)cccc3cc2CN1Cc1ccco1 | active |
| Cc1ccccc1-c1nc(-n2ccnc2)c2ccccc2n1 | active |
| CCc1nnc(NC(=O)CSc2ncnc3c2cnn3-c2ccc(OC)cc2)s1 | inactive |
| Cc1cc(C)n(-c2nnc(C)n2/N=C/c2ccccc2OCc2ccccc2Cl)n1 | active |
| Cc1ccccc1-c1nc(NC2CCNCC2)c2ccccc2n1 | inactive |
| COC(=O)c1ccc(NC(C)=O)o1 | inactive |
| S=C(Nc1ccccc1)Nc1ccc(OCc2ccccc2)cc1 | inactive |
| Cc1nnc(NC(=O)CSc2ncnc3c2cnn3-c2ccccc2C)s1 | inactive |
| O=C(Nc1cccc(-c2nc3ccccc3s2)c1)c1ccc2c(c1)OCO2 | active |
| CC(=O)Nc1ccc(NC2=Nc3ccccc3N3C2=Nc2c(c(C)nn2-c2ccccc2)C3c2ccccc2)cc1 (configuration not stated) | inactive |
| COc1ccc(NC2=NC(=S)N(c3ccc(C)cc3)C23CCCCC3)cc1 | inactive |
| COc1ccc(O[C@H]2C=C[C@@H](c3ccccc3)O[C@@H]2CO/N=C(\C)CCN2CCCc3nc(C)c(C)cc32)cc1 | active |
| Clc1ccccc1-c1nc(-n2ccnc2)c2ccccc2n1 | active |
| Cc1nn(C(=O)c2ccco2)c(C)c1Sc1ccc(Br)cc1 | inactive |
| Cc1ccccc1NS(=O)(=O)c1cc(C(=O)Nc2cccc(N(C)S(C)(=O)=O)c2)ccc1C | active |
| CCCCC(C=O)NC(=O)C(CC(C)C)NC(=O)OCc1ccccc1 (configuration not stated) | active |
| O=c1nc(-c2ccccc2)cn[nH]1 | inactive |
| O=C(O)c1ccccc1C(=O)NCc1ccc(F)cc1 | inactive |
| C=C(CC)C(=O)c1ccc(OCC(=O)O)c(Cl)c1Cl | inactive |
| NC(=O)c1ccccc1-c1nc(-n2ccnc2)c2ccccc2n1 | active |
| CC1CCN(CCOc2cc(Cl)ccc2Cl)CC1 | inactive |
| CCN1C(=O)/C(=C2\SC(N3CCCCC3)=NC2=O)c2ccccc21 | active |
| NCCCCCCCCCCN | inactive |
| O=C(NNC(=O)c1ccccc1O)c1ccc(Cl)cc1 | inactive |
| CC(C)c1ccc(C2C(C#N)=C(N)N3C(=C2C#N)Sc2ccccc23)cc1 (configuration not stated) | inactive |
| C/C(=N/NC(=O)Cc1cccn1C)c1ccccc1 | inactive |
| CN(Cc1ccco1)c1ncnc2ccc(-c3ccccc3C(F)(F)F)cc12 | active |
| COC(=O)c1c(NC(C)=O)sc(Cc2ccccc2)c1C | active |
| O=C(O)c1ccccc1C(=O)NNc1ccc(F)cc1 | active |
| CC(=O)Oc1ccc2ccccc2c1C(NC(=O)Cc1ccccc1)c1ccc(Cl)cc1 (configuration not stated) | active |
| O=C(Nc1ccc(-n2nncc2-c2ccco2)cc1)c1ccc(F)cc1 | active |
| NCCC(=O)O | inactive |
| Cc1ccccc1NC1=NC(=S)N(c2ccccc2)C12CCOC(C)(C)C2 (configuration not stated) | active |
| CCOc1ccc(-n2ccnc2SCC(=O)Nc2nnc(C)s2)cc1 | active |
| COc1cc(C(=O)NCC(c2cccnc2)N2CCN(C)CC2)cc(OC)c1OC (configuration not stated) | inactive |
| CC1(C)OC(C(N)=O)C(C(N)=O)O1 (configuration not stated) | inactive |
| Cc1cc2c(cc1C)NC(c1nc3ccccc3[nH]1)C1=C(CC(C)(C)CC1=O)N2 (configuration not stated) | active |
| FC(F)(F)c1ccccc1-c1nc(NC2CCNCC2)c2ccccc2n1 | inactive |
| COc1ccc(-c2cnnn2-c2ccc(NC(=O)c3ccco3)cc2)cc1OC | active |
| C/C(=N/Nc1ccc2ccccc2n1)c1ccccc1O | active |
| COCCn1c(=O)c(CCc2ccccc2)nc2cncnc21 | active |

----------
targetDesc: Cytochrome P450 3A4 (Homo sapiens)
assayInfo: Cytochrome panel assay with activity outcomes
testConditions: recombinant CYP, pro-luciferin dealkylation, luminescence, p450-cyp3a4; series mostly up to 57.1 µM
Procedure: The P450 gene superfamily is involved in the metabolism and clearance of xenobiotics. This assay used various human CYP P450 isozymes to measure the dealkylation of various pro-luciferin substrates to luciferin. The luciferin is then measured by luminescence after the addition of a luciferase detection reagent. […] Inhibitors and some substrates limit the production of luciferin, and decrease measured luminescence. […] 8, Detection, 1 sec, ViewLux luminescent read […]
About 5,100 (32%) of roughly 16,000 compounds were called active. About 25% were inconclusive and are not listed. The call rests on the fitted dose curve; in most records, active means well fitted curve in the direction sought with a large enough effect; inconclusive means small, poorly fitted or top-dose-only effect, or effect the other way; inactive means no such curve, though single readings can be large or run the other way. The list shows a part of the results.
Outcomes: active, inactive

| compound | answerLabel |
| --- | --- |
| Cc1cc(C)c(NC(=O)CS(=O)CC(=O)NCCCc2ccccc2)c(C)c1 (stereo unspecified) | active |
| Cc1c(Br)c([N+](=O)[O-])nn1CC(=O)NCc1ccccn1 | inactive |
| COc1ccccc1CNc1ncncc1-c1ccccc1OC | active |
| Cc1ccnc(NS(=O)(=O)c2ccc(NC(=O)C3CCCNC3=O)cc2)n1 (stereo unspecified) | inactive |
| Cn1nc(C(F)(F)F)c(C(=O)Nc2ccc(F)cc2F)c1Sc1cccc(C(F)(F)F)c1 | active |
| C[C@H](CO)NC(=O)[C@H](C)[C@H]1C[C@]1(C)[C@H](NC(=O)OCc1ccccc1)c1ccccc1 | active |
| CCN(C1CCCCC1)S(=O)(=O)c1ccc(S(=O)(=O)NCc2ccncc2)cc1 | active |
| Cc1c(Br)c([N+](=O)[O-])nn1C(C)C(=O)Nc1nccs1 (stereo unspecified) | active |
| O=C(NCc1cccs1)C1CCN(S(=O)(=O)c2cccc3nsnc23)CC1 | active |
| Cc1ccc(C(=O)C2=C(O)C(=O)N(CCCn3ccnc3)C2c2ccc(OC(C)C)cc2)o1 (stereo unspecified) | active |
| CCc1ccccc1NC(=O)C(C)n1nc([N+](=O)[O-])c(Br)c1C (stereo unspecified) | active |
| COc1ccc2nc(NC(=O)C3CCN(S(=O)(=O)c4cccc5nsnc45)CC3)sc2c1 | active |
| CC(C)NC(=O)c1ccc(-c2cccc(C(F)(F)F)c2)o1 | inactive |
| COc1ccccc1CNc1ncncc1-c1ccccc1Cl | active |
| CCOC(=O)Nc1ccc(S(=O)(=O)NCc2ccccc2)cc1 | inactive |
| CC(C)(C)n1nc(-c2ccc(Cl)cc2)c2c(N)ncnc21 | inactive |
| CCOC(=O)c1[nH]c(C(=O)O)c(CCN(CC)CC)c1C | inactive |
| CCc1ccc(NC(=O)C2CCN(S(=O)(=O)c3c(C)[nH]c(=O)[nH]c3=O)CC2)cc1 | inactive |
| Cc1cc(N2C(=O)C(O)=C(C(=O)c3cccs3)C2c2cccc(O)c2)no1 (stereo unspecified) | inactive |
| Cc1cccc(NC(=O)C2CCN(S(=O)(=O)c3cccc4nsnc34)CC2)n1 | inactive |
| Cc1ccc(NC(=O)c2c(C(F)(F)F)nn(C)c2SCc2cccc(C(F)(F)F)c2)cc1C | active |
